- Procedure details: Odour Detection Threshold (ODT) / odour threshold
Give measured log10 of Odour threshold for each item. Keep answers brief.
Response schema: value (number) is log10 of Odour threshold in units of ng/L air.

-- ask What value of log10 of Odour threshold has been reported for the following compound? CCC/C=C/c1ccc2c(c1)OCC(=O)CO2
-- reply -2.50

-- ask What value of log10 of Odour threshold has been reported for the following compound? CC(C)(C)C/C=C/c1ccc2c(c1)OCC(=O)CO2
-- reply -1.38

-- ask What value of log10 of Odour threshold has been reported for the following compound? C/C=C/C=C/c1ccc2c(c1)OCC(=O)CO2
-- reply -3.85

-- ask What value of log10 of Odour threshold has been reported for the following compound? CCC(C)/C=C/c1ccc2c(c1)OCC(=O)CO2 (stereo not shown)
-- reply -1.68

-- ask What value of log10 of Odour threshold has been reported for the following compound? CC(C)C/C=C/c1ccc2c(c1)OCC(=O)CO2
-- reply -3.60

-- ask What value of log10 of Odour threshold has been reported for the following compound? CC(C)/C=C/c1ccc2c(c1)OCC(=O)CO2
-- reply -1.82

-- ask What value of log10 of Odour threshold has been reported for the following compound? CC/C=C/c1ccc2c(c1)OCC(=O)CO2
-- reply -2.80
